Target: T1, human SLC34A2 (human, UniProt O95436 1-690)
T1 sequence (looked up): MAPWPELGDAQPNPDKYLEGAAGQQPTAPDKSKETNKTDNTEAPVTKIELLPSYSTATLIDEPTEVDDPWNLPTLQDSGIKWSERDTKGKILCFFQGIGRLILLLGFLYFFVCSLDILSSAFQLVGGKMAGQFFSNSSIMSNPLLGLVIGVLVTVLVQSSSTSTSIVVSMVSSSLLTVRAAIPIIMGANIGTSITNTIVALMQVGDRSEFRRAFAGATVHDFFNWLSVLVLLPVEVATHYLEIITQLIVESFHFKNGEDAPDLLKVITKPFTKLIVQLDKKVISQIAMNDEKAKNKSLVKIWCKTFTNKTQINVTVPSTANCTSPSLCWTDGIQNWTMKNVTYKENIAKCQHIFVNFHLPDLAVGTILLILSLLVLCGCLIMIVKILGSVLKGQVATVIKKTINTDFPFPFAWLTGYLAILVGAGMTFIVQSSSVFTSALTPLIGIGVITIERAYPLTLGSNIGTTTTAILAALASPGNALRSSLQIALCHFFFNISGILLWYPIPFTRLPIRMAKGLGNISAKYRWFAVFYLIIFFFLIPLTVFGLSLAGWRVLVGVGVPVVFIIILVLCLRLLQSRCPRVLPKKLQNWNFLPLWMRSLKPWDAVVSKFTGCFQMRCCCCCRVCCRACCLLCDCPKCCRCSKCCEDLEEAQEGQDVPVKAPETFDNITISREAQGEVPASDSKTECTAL
Experiment: cell-based or functional assay
Known ADCC reporter Top (MFI) of a selection of binders
Entry rule: numbers only, all in MFI.

Known ADCC reporter Top (MFI) results, listed for orientation:
- 30H9B8F9 VH_P1/VL hIgG1 (antibody, V domains shown, PTM-derisked chimeric, hIgG1; that P1 is the N=>S version follows from the humanized .p1 chains; also called 30H9B8F9.p1 hIgG1) VH: QVQLQQPGAELVKPGASVKMSCKTSGYTFTTNNMHWVKQTPGQGLEWIGAIYPGSGATAYNQKFKGKATLTADKSSSTAYMQLSSLTSEASAVYYCARGMYGHGAMDYWGQGTSVIVSS VL: DIVMTQSHKFMSRSVGDRVRITCKASQDVGTAVAWYQQKPGQSPKLLIYWATTRHSGVPDRFTGSGSGTDFIFTISNVQSEDLADYFCQQYSSNPLTFGAGTKLELK: 126000
- 62G10E4G8.p3.z15 hIgG1 (antibody, V domains shown, humanized hIgG1) VH: QVQLVQSGAEVVKPGASVKMSCKASGYTFPSYITHWVKQAPGQGLEWIGAIYPGNADTSYIQKFKGRATLTADKSTSTAYMELSSLRSEDTAVYYCARGTYGTSAWFTYWGQGTLVTVSS VL: EIVLTQSPATLSVSPGERATLSCRARQNIGNNLYWYQQKPGQSPRLLIKYASQSISGIPSRFSGSGSGTDFTLTISSLQSEDFAVYFCQQSFSWPLTFGQGTKLEIK: 123000
- 63A11D5B4 VH_P1/VL hIgG1 (antibody, V domains shown, PTM-derisked chimeric, hIgG1; that P1 is the SG version follows from the humanized .p1 chains; also called 63A11D5B4.p1 hIgG1) VH: QVQLQQPGAELVKPGASVKMSCRTSGYTFITYNMHWVKQTPGQGREWIGAIYPGSGDTSYNQKFKGKATLTADKSSSTAYMQLNSLTSEDSAVYYCSISTIITTGAVDYWGQGTSVTVAS VL: DIVMTQSHKFMSTSVGDRVSITCKASQDVGTAVAWYQQKAGQSPKLLIYWTSTRHTGVPDRFTGSGSGTDFTLIIRSLQSEDLADYFCQQYSRIPLTFGSGTKLEIK: 114000
- 63A11D5B4.p1.z15 hIgG1 (antibody, V domains shown, humanized hIgG1) VH: QVQLQQSGAEVVKPGASVKMSCKTSGYTFITYNMHWVKQAPGQGREWIGAIYPGSGDTSYNQKFKGRATLTADKSTSTAYMELSSLRSEDTAVYYCSISTIITTGAVDYWGQGTSVTVSS VL: DIQMTQSPSSLSTSVGDRVTITCKASQDVGTAVAWYQQKPGQSPKLLIYWTSTRHTGVPDRFSGSGSGTDFTLIIRSLQPEDVATYFCQQYSRIPLTFGGGTKVEIK: 122000

Query string: Consider the binder shown here: 91C9F1.p1 hIgG1 (antibody, V domains shown, PTM-derisked chimeric, hIgG1; also called 91C9F1.pl hIgG1) VH: EVQLQQSGPELVKPGTSVKISCKTSGFFFTEYIIHWVKQSHGRSLEWIGGIIPNNDVTNYKQNFRGKAALTADKSSNTAYMELRSLTSEDSAVYYCARWRNAYYSAMDSWGQGTSVTVSS VL: DIVVTQSHKFMSTSLGDRVSITCTASQDVGTAVAWYQQKPGHSPKLLIYWASTRHTGVPERFTGSGSGTDFTLTITNVQSEDLADYFCQQYRTSPLTFGVGTKLELK What is its recorded ADCC reporter Top (MFI)?
Result string: 143000

Query string: Consider the binder shown here: 91C9F1.p1.z4 hIgG1 (antibody, V domains shown, humanized hIgG1) VH: QVQLVQSGAEVKKPGSSVKVSCKASGFFFTEYIIHWVRQAPGQGLEWMGGIIPNNDVTNYKQNFRGRVTITADESTSTAYMELSSLRSEDTAVYYCARWRNAYYSAMDSWGQGTTVTVSS VL: DIVVTQSPSSLSTSVGDRVTITCTASQDVGTAVAWYQQKPGKSPKLLIYWASTRHTGVPERFTGSGSGTDFTLTISSVQPEDVATYFCQQYRTSPLTFGVGTKLELK What is its recorded ADCC reporter Top (MFI)?
Result string: 137000

Query string: Consider the binder shown here: 30H9B8F9.p1.z5 hIgG1 (antibody, V domains shown, humanized hIgG1) VH: QVQLVQSGAEVKKPGASVKVSCKTSGYTFTTNNMHWVRQAPGQGLEWIGAIYPGSGATAYNQKFKGRVTMTADTSTSTVYMELSSLRSEDTAVYYCARGMYGHGAMDYWGQGTLVTVSS VL: DIQLTQSPSFLSASVGDRVTITCKASQDVGTAVAWYQQKPGKAPKLLIYWATTRHSGVPSRFSGSGSGTEFTLTISSLQPEDFATYYCQQYSSNPLTFGQGTKLEIK What is its recorded ADCC reporter Top (MFI)?
Result string: 135000
